These data points were gathered from the supplement of paper PMC11061612.

Please provide measured combination Emax for the entries that follow.
- Test system: LOUCY (T-Lymphoblastic Leukemia)
- assay.procedure: combination Emax (second highest fraction inhibited in the dose matrix, 72 h); higher = more inhibition; extreme values may be limits of the assay
Lab note: jot down the number only; don't add units.

Requested read-out: combination Emax. Entry: Cc1cc2ncnn2cc1Nc1ncc2c(n1)n(C1CCOCC1)c(=O)n2C [AZD7648] + C[C@@H]1COCCN1C2=NC(=NC(=C2)C3(CC3)[S@](=N)(=O)C)C4=C5C=CNC5=NC=C4 [AZD6738] (first compound max 10 µM, 7x7, partner max 10 µM)
1

Entry Cc1cc2ncnn2cc1Nc1ncc2c(n1)n(C1CCOCC1)c(=O)n2C [AZD7648] + COc1cc([C@@H]2c3cc4c(cc3[C@@H](O[C@@H]3O[C@@H]5CO[C@@H](C)O[C@H]5[C@H](O)[C@H]3O)[C@H]3COC(=O)[C@H]23)OCO4)cc(OC)c1O [Etoposide] (first compound max 10 µM, 7x7, partner max 10 µM) please
0.968
